Quick reference: Activity of the listed items.
Test system: Left cardiac atrium
method: Negative inotropic activity in guinea pig left atrium assessed as decrease in developed tension at 10^-5 M relative to control
Set-up: scale not given: the % may be the effect or the level left
condition set: 10 µM
Write down the numeric answer in % and omit the unit.

# count of solved cases: 3
>  <compound>
O=C1NC(=O)C2C3c4ccccc4C(c4ccc(Cl)cc43)C12 (centres undefined)

>  <Activity, %>
80

$$$$
>  <compound>
CC(=O)Nc1cccc2c1C1c3ccccc3C2C2C(=O)NC(=O)C12 (centres undefined)

>  <Activity, %>
65

$$$$
>  <compound>
CCCCCCCNC(=O)C12c3ccccc3C(c3ccccc31)C1C(=O)NC(=O)C12 (centres undefined)

>  <Activity, %>
76

$$$$

Prompt line: Which Activity value belongs to O=C1NC(=O)C2C3c4ccccc4C(c4cccc(Cl)c43)C12 (centres undefined) ?
Response line: 93

====

System: Voltage-gated calcium channel
method: Inhibition of K+-induced voltage gated calcium channel opening in human SH-SY5Y cells assessed as decrease in Ca2+ level at 10 uM after 10 mins by Fluo-4 dye-based fluorescence assay relative to control
Type: cell-based
Quick reference: inhibition (INH) of the listed items.
Write down the numeric answer in % and omit the unit.

>  <compound>
O=C1NC(=O)C2C1C1c3ccccc3C2(/C=N/Cc2ccccc2)c2ccccc21 (stereo unspecified)

>  <system>
Voltage-gated calcium channel

>  <units>
%

>  <inhibition (INH)>
4

$$$$
>  <compound>
CC(=O)c1ccc2c(c1)C1c3ccccc3C2C2C(=O)NC(=O)C12 (stereo unspecified)

>  <system>
Voltage-gated calcium channel

>  <units>
%

>  <inhibition (INH)>
20

$$$$

Prompt line: Which inhibition (INH) value belongs to Nc1cccc2c1C1c3ccccc3C2C2C(=O)NC(=O)C12 (stereo unspecified) ?
Response line: 11

Prompt line: Cool, now CC(=O)Nc1ccc2c(c1)C1c3ccccc3C2C2C(=O)NC(=O)C12 (stereo unspecified)
Response line: 8

Prompt line: Cool, now O=C1NC(=O)C2C3c4ccccc4C(c4cccc(Cl)c43)C12 (stereo unspecified)
Response line: 37

Prompt line: Cool, now O=C1NC(=O)C2C1C1(Cl)c3ccccc3C2(Cl)c2ccccc21 (stereo unspecified)
Response line: 38

Prompt line: Cool, now O=C1NC(=O)C2C3c4ccccc4C(c4ccc(Cl)cc43)C12 (stereo unspecified)
Response line: 39

Prompt line: Cool, now CCCCCCCNC(=O)C12c3ccccc3C(c3ccccc31)C1C(=O)NC(=O)C12 (stereo unspecified)
Response line: 56

Prompt line: Cool, now CC(=O)Nc1cccc2c1C1c3ccccc3C2C2C(=O)NC(=O)C12 (stereo unspecified)
Response line: 0

Prompt line: Cool, now Nc1ccc2c(c1)C1c3ccccc3C2C2C(=O)NC(=O)C12 (stereo unspecified)
Response line: 6

Prompt line: Cool, now COCCOC(=O)C1=C(C)NC(C)=C(C(=O)OC(C)C)C1c1cccc([N+](=O)[O-])c1 (stereo unspecified) [NIMODIPINE]
Response line: 25

====

Quick reference: Activity of the listed items.
Test system: Left cardiac atrium (Cavia porcellus)
method: Negative inotropic activity in guinea pig left atrium driven at 1 Hz assessed as decrease in developed tension at 10^-5 M
Design: scale not given: the % may be the effect or the level left
condition set: 10 µM
Write down the numeric answer in % and omit the unit.

# count of solved cases: 3
>  <compound>
CCCCCCCNC(=O)C12c3ccccc3C(c3ccccc31)C1C(=O)NC(=O)C12 (centres undefined)

>  <assay value>
85

$$$$
>  <compound>
CC(=O)c1ccc2c(c1)C1c3ccccc3C2C2C(=O)NC(=O)C12 (centres undefined)

>  <assay value>
4

$$$$
>  <compound>
O=C1NC(=O)C2C3c4ccccc4C(c4cccc(Cl)c43)C12 (centres undefined)

>  <assay value>
94

$$$$

Then there is this compound:
Prompt line: Which Activity value belongs to O=C1NC(=O)C2C3c4ccccc4C(c4ccc(Cl)cc43)C12 (centres undefined) ?
Response line: 87
